Assay: log P by HPLC (EEC Directive 79/831 Annex V.A8)
Format: physicochemical
Conditions: [b] LC-MS, acidic range, pH 2.7, 0.1% aqueous formic acid and acetonitrile
Outcome label depends on log P relative to 4: at/above gives met, below gives not met.

Example cases with answers are listed next.
- Compound: "O=C(NCc1ccccn1)c1cccc(C2CCN(C(=O)Cn3nc(C(F)F)cc3C(F)F)CC2)n1 [Example 90]"
  Category: "not met"
- Compound: "CCCCCC(C)NC(=O)c1cccc(C2CCN(C(=O)Cn3nc(C(F)(F)F)cc3C)CC2)n1 (racemic) [Example 17]"
  Category: "met"
- Compound: "Cc1ccsc1CNC(=O)c1cccc(C2CCN(C(=O)Cn3nc(C(F)F)cc3C(F)F)CC2)n1 [Example 92]"
  Category: "not met"
- Compound: "Cc1cc(C(F)(F)F)nn1CC(=O)N1CCC(c2cccc(C(=O)SCc3ccc(Cl)cc3Cl)n2)CC1 [Example 55]"
  Category: "met"
- Compound: "CN(C(=O)c1cccc(C2CCN(C(=O)Cn3nc(C(F)F)cc3C(F)F)CC2)n1)C1CCCCC1 [Example 78]"
  Category: "not met"

Could you verify whether the entry Cc1cc(C(F)(F)F)nn1CC(=O)N1CCC(c2cccc(C(=O)Sc3ccc4ccccc4c3)n2)CC1 [Example 61] shows log P of no less than 4? met

Also O=C(NCc1ccc(F)cc1F)c1cccc(C2CCN(C(=O)Cn3nc(C(F)F)cc3C(F)F)CC2)n1 [Example 87] , if possible. not met

Also Cc1cc(C(F)(F)F)nn1CC(=O)N1CCC(c2cccc(C(=O)NC(C)c3ccccc3Cl)n2)CC1 (racemic) [Example 16] , if possible. not met

Also Cc1cc(C(F)(F)F)nn1CC(=O)N1CCC(c2cccc(C(=O)N(C)c3ccccc3Cl)n2)CC1 [Example 10] , if possible. not met

Also Cc1cc(C(F)(F)F)nn1CC(=O)N1CCC(c2cccc(C(=O)Sc3cccs3)n2)CC1 [Example 63] , if possible. not met

Values from patent US8604040B2
